Catalogue of Maximum mean fluorescence intensity values
# assayed-target: T1, human CD19 on CHO-K1-human CD19 cells (human, UniProt P15391 20-556)
# T1 construct: whole, on cells; also called CHO-K1-human CD19-2C8
# T1 sequence (looked up): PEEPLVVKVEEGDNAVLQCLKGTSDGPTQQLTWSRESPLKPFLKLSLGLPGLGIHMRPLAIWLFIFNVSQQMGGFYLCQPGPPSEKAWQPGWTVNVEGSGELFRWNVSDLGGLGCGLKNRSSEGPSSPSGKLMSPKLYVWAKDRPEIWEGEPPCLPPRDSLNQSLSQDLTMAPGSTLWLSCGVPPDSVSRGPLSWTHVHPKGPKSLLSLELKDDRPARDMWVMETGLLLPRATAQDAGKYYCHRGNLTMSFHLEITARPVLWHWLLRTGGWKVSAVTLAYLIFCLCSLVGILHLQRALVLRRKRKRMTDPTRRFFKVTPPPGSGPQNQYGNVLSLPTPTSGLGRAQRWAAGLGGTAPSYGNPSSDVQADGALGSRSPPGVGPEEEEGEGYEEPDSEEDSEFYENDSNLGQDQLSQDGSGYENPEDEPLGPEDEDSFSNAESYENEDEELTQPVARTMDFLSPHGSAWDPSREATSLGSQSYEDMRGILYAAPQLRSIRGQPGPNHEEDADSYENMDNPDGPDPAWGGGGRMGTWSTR
# assay-method-text: FACS on CHO-K1-human CD19 cells
// return just the number, without any unit appended

[[record]]
binder = "F3.83.9 (antibody, human IgG1, V domains shown, human-murine chimeric antibody, human IgG1) VH: DVQLQESGPGLVKPSQSLSLTCSVTGYSITSGYYWNWIRQFPGNKLEWMGYISYDGGNNYNPSLKNRISITRDTSKNQFFLKLNSVTTEDTATYFCAREDYSNWYFDVWGTGTTVTVSS VL: DIVLTQSPASLAVSLGQRATISCRASQSVSKSSYSYMHWYQQKPGQSPKLLIKYASILKSGVPARFSGSGSGTDFTLNIHPVEEEDTATYYCQHSWEIPWTFGGGTKLEIK"
observed_measurement = 52200


Query binder follows.
Asked: Suppose we examine the binder F3.13.2 (antibody, human IgG1, V domains shown, human-murine chimeric antibody, human IgG1) VH: DVQLQESGPGLMKPSQSLSLTCSVTGYSITSGYYWNWIRQFPGNKLEWMGYISYDGSNNYNPSLKNRFSITRDTSKNQFFLKLNSVTTEDTATYYCARRKLTGGPYFDYWGQGTTLTVSS VL: DIVLTQSPASLAVTLGQRATISCRASESVSFHGFHIMHWYQQKPGQPPKLLIYAASHLVSGVPDRFSGSGSETDFTLNIHPVEEEDAAAYFCQQSVEDPWTFGGGTKLEIK ; what Maximum mean fluorescence intensity value has been reported?
Given back: 43900
